# Experimental system: VLP2 (virus-like particles, capsid protein particles of AAV serotype 2) (AAV serotype 2 (AAV2)) (UniProt P03135)
# Sequence (P03135 whole entry): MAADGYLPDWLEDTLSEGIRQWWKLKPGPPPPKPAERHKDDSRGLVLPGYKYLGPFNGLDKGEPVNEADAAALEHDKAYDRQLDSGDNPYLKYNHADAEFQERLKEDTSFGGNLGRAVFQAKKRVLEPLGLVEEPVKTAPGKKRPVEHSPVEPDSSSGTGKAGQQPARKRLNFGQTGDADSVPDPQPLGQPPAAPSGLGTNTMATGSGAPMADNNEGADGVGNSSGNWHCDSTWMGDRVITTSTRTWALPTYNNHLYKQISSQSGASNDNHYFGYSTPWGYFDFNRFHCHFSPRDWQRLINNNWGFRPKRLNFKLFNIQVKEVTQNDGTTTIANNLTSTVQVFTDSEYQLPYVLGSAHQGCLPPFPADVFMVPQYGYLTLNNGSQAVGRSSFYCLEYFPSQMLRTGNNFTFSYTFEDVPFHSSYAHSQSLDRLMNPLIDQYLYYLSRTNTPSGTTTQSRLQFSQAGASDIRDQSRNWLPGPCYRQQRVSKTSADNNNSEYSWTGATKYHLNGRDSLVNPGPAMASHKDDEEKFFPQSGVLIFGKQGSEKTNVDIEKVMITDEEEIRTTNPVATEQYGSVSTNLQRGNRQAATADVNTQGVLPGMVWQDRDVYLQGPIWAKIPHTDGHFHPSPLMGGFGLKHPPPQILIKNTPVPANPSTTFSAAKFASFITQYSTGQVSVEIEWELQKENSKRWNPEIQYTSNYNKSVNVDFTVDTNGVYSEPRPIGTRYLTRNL
# Measurement notes: ELISA on immobilised VLP2 (purified protein); A450 after 1:1 0.5 M NaOH, 30°C, 60 min divided by A450 at 0 time
I'd be grateful if you could share measured Remaining activity [%] for these entries.
Respond with the bare value in %.

Reported Remaining activity [%] of AAV-binding protein AVR21 (receptor) MGSAGESDQITLPKHEAQLNVYVLLVPPKGEASTYDWQLITHPRDYSGEMEGEHSQILKLSNLTPGLYEYRAVVEGQNAHSEGYVNVTVEPEPRKNRPPIAIVSPQFQEISLPTTSTVIDGSQSTDDDKIVQYHWEELKGPLREEKISEDTAILKLSQLVPGNYTFRLTVVDTDGATDSTTADLTVNKAVDHHHHHH : 0

Reported Remaining activity [%] of AVR25b (AVR21 with K338R, E401G, T426A, A461P) (receptor) MGSAGESDQITLPKHEAQLNVYVLLVPPRGEASTYDWQLITHPRDYSGEMEGEHSQILKLSNLTPGLYEYRAVVEGQNAHSEGYVNVTVEPGPRKNRPPIAIVSPQFQEISLPTTSAVIDGSQSTDDDKIVQYHWEELKGPLREEKISEDTPILKLSQLVPGNYTFRLTVVDTDGATDSTTADLTVNKAVDHHHHHH : 1.5

Reported Remaining activity [%] of AVR24a (AVR21 with N329K, E401G, T426A) (receptor) MGSAGESDQITLPKHEAQLKVYVLLVPPKGEASTYDWQLITHPRDYSGEMEGEHSQILKLSNLTPGLYEYRAVVEGQNAHSEGYVNVTVEPGPRKNRPPIAIVSPQFQEISLPTTSAVIDGSQSTDDDKIVQYHWEELKGPLREEKISEDTAILKLSQLVPGNYTFRLTVVDTDGATDSTTADLTVNKAVDHHHHHH : 0.3

Reported Remaining activity [%] of AVR24b (AVR21 with K338R, T426A, A461P) (receptor) MGSAGESDQITLPKHEAQLNVYVLLVPPRGEASTYDWQLITHPRDYSGEMEGEHSQILKLSNLTPGLYEYRAVVEGQNAHSEGYVNVTVEPEPRKNRPPIAIVSPQFQEISLPTTSAVIDGSQSTDDDKIVQYHWEELKGPLREEKISEDTPILKLSQLVPGNYTFRLTVVDTDGATDSTTADLTVNKAVDHHHHHH : 17.6

Reported Remaining activity [%] of AVR26 (AVR21 with N329K, K338R, E401G, T426A, A461P) (receptor) MGSAGESDQITLPKHEAQLKVYVLLVPPRGEASTYDWQLITHPRDYSGEMEGEHSQILKLSNLTPGLYEYRAVVEGQNAHSEGYVNVTVEPGPRKNRPPIAIVSPQFQEISLPTTSAVIDGSQSTDDDKIVQYHWEELKGPLREEKISEDTPILKLSQLVPGNYTFRLTVVDTDGATDSTTADLTVNKAVDHHHHHH : 23.9

Reported Remaining activity [%] of AVR25a (AVR21 with N329K, E401G, T426A, A461P) (receptor) MGSAGESDQITLPKHEAQLKVYVLLVPPKGEASTYDWQLITHPRDYSGEMEGEHSQILKLSNLTPGLYEYRAVVEGQNAHSEGYVNVTVEPGPRKNRPPIAIVSPQFQEISLPTTSAVIDGSQSTDDDKIVQYHWEELKGPLREEKISEDTPILKLSQLVPGNYTFRLTVVDTDGATDSTTADLTVNKAVDHHHHHH : 47.9
